Tgt: MDM2 (Homo sapiens, UniProt Q00987)
Sequence (Q00987 whole entry): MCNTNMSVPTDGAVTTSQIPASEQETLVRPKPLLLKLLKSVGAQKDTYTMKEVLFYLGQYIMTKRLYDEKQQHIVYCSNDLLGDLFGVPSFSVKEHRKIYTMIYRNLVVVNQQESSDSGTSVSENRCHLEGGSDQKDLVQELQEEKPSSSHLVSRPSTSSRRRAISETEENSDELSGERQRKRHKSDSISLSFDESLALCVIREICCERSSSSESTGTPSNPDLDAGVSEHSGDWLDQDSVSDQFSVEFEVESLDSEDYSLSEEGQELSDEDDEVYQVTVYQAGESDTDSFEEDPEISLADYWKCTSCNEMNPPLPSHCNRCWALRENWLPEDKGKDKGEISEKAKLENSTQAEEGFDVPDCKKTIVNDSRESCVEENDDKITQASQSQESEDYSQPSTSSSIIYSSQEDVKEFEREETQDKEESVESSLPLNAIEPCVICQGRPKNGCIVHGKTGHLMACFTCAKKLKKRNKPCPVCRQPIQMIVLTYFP
Assay Explanation: MDM2 binding screen of Libraries 3 and 4: displacement of fluorescent probe F-M8 at 750 nM macrocycle
Cond: Panel c, Library 4: best nine scaffolds and 15 additional carboxylic acids; displacement of fluorescent probe
Protocol: The cyclic peptide scaffolds required for Libraries 3 and 4 were synthesized as described for those used in Library 2. Due to the presence of many N-methylated amino acids which are more difficult to couple, 200 mM HOAt was applied together with HATU. The scaffolds were diluted to 2 mM in DMSO, and 15 nL were transferred using acoustic dispensing, followed by 15 nL DMSO containing carboxylic acids (40 mM, 20 equiv.), HBTU (40 mM) and DABCO (40 mM). […]
Property Label: fraction of fluorescent probe displaced

Below: 3 molecules and their reported fraction of fluorescent probe displaced.
> print(dat)
                                   molecule                                  tgt                           property.label  numeric.value
1  CCOc1ccc(/C=C/C(=O)NC[C@@H]2NC(=O)[C@H]3CCCN(C3)C(=O)CCSSCCNC(=O)[C@H](Cc3c[nH]c4ccccc34)NC2=O)cc1  MDM2 (Homo sapiens, UniProt Q00987)  fraction of fluorescent probe displaced          0.533
2  O=C(/C=C/c1cccc(C(F)(F)F)c1)NC[C@@H]1NC(=O)C2(CC2)CNC(=O)CCSSCCNC(=O)[C@H](Cc2c[nH]c3ccccc23)NC1=O  MDM2 (Homo sapiens, UniProt Q00987)  fraction of fluorescent probe displaced          0.052
3  CC(C)c1ccc(/C=C/C(=O)NC[C@@H]2NC(=O)[C@H]3CCCN(C3)C(=O)CCSSCCNC(=O)[C@H](Cc3ccc4ccccc4c3)NC2=O)cc1  MDM2 (Homo sapiens, UniProt Q00987)  fraction of fluorescent probe displaced         -0.021

(A) CC(=Cc1ccccc1)C(=O)NCC1NC(=O)C2CCCN(C2)C(=O)CCSSCCNC(=O)C(Cc2c[nH]c3ccccc23)NC1=O (centres unmarked)
(B) O=C(/C=C/c1ccc(F)cc1)NC[C@@H]1NC(=O)[C@H]2CCCN(C2)C(=O)CCSSCCNC(=O)[C@H](Cc2c[nH]c3cc(Cl)ccc23)NC1=O
Return label of the item with the larger fraction of fluorescent probe displaced. Candidates: A , B . Response format: the label of the selected entry.
B
(B: 0.289, A: 0.044)

====

Tgt: thrombin (Homo sapiens, UniProt P00734)
Construct: consists of two polypeptide chains of 36 (light chain) and 259 amino acid
Assay Explanation: Determination of Kis of purified thrombin inhibitors (IC50, Cheng-Prusoff)
Assay type: biochemical
Cond: thrombin; replicate 2; Cheng-Prusoff; read-out: Ki (nM) Replicate 2
Protocol: Purified thrombin inhibitors (10 mM in DMSO) were diluted to 80 μM in 125 μL of Tris buffer (100 mM Tris-Cl, 150 mM NaCl, 10 mM MgCl2, 1 mM CaCl2) containing 0.1% w/v BSA, 0.01% v/v Triton-X100 and 0.2% DMSO. […] The thrombin activity was measured in 96-well plates (Greiner, 655101) and the residual activity calculated as described above in the assay used to measure activities of HPLC-separated fractions of screening hits. […]
Property Label: Ki (nM)

> print(dat)
                                   compound  numeric.value
1  CC(C)[C@@H]1NC(=O)CCSSCCNC(=O)[C@H](CNC(=O)c2ccc(Cl)s2)NC(=O)c2cccc(c2)CNC1=O            121

(a) O=C1CCSSCCNC(=O)C(CNC(=O)c2ccc(Cl)s2)NC(=O)c2cccc(c2)CNC(=O)C(Cc2ccccc2)N1 (stereo not drawn)
(b) CC(C)[C@H]1NC(=O)CCSSCCNC(=O)[C@H](CNC(=O)c2ccc(Cl)s2)NC(=O)c2cccc(c2)CNC1=O
Field: entry with larger Ki (options a / b ). Please identify the chosen entry by its label.
a
(a: 138 nM, b: 43 nM)
